- Study System: G-protein coupled receptor 55 (Homo sapiens, UniProt Q9Y2T6)
- Sequence (Q9Y2T6 whole entry): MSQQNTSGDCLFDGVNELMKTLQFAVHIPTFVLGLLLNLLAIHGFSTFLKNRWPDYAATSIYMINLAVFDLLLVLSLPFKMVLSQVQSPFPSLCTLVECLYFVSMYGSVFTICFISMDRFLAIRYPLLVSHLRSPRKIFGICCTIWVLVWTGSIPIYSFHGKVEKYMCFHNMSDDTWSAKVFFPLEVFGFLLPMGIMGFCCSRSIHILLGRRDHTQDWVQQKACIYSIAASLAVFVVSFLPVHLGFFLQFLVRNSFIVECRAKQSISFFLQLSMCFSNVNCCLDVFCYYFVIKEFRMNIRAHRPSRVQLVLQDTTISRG
- Method: Agonist activity at human GPR55 expressed in HEK293 cells assessed as calcium signalling by fura 2-based digital epifluorescence microscopy
- Assay type: functional, cell-based

- Smiles Input: "O=C(NCc1ccccc1)c1ccc(NC(=S)NC(=O)c2ccc(-c3ccccc3)cc2)cc1"
  Study System: "G-protein coupled receptor 55 (Homo sapiens, UniProt Q9Y2T6)"
  Relational Operator: ">"
  EC50, nM: 10000
- Smiles Input: "Cc1ccc(CNS(=O)(=O)c2ccc(NC(=S)NC(=O)c3ccc(-c4ccccc4)cc3)cc2)cc1"
  Study System: "G-protein coupled receptor 55 (Homo sapiens, UniProt Q9Y2T6)"
  Relational Operator: "="
  EC50, nM: 12.4
- Smiles Input: "O=C(NC(=S)Nc1ccc(S(=O)(=O)NCc2ccc(F)cc2)cc1)c1ccc(-c2ccccc2)cc1"
  Study System: "G-protein coupled receptor 55 (Homo sapiens, UniProt Q9Y2T6)"
  Relational Operator: "="
  EC50, nM: 2
- Smiles Input: "O=C(NC(=S)Nc1ccc(S(=O)(=O)Nc2ccccc2)cc1)c1ccc(-c2ccccc2)cc1"
  Study System: "G-protein coupled receptor 55 (Homo sapiens, UniProt Q9Y2T6)"
  Relational Operator: "="
  EC50, nM: 6.2
- Smiles Input: "CCCCC/C=C\\C/C=C\\C/C=C\\C/C=C\\CCCC(=O)OC[C@@H](O)COP(=O)(O)O[C@@H]1[C@@H](O)[C@H](O)[C@@H](O)[C@H](O)[C@@H]1O"
  Study System: "G-protein coupled receptor 55 (Homo sapiens, UniProt Q9Y2T6)"
  Relational Operator: "="
  EC50, nM: 20.2
- Smiles Input: "C=CCNS(=O)(=O)c1ccc(NC(=S)NC(=O)c2ccc(-c3ccccc3)cc2)cc1"
  Study System: "G-protein coupled receptor 55 (Homo sapiens, UniProt Q9Y2T6)"
  Relational Operator: "="
  EC50, nM: 19.4
- Smiles Input: "O=C(NCCc1ccccc1)c1ccc(NC(=S)NC(=O)c2ccc(-c3ccccc3)cc2)cc1"
  Study System: "G-protein coupled receptor 55 (Homo sapiens, UniProt Q9Y2T6)"
  Relational Operator: ">"
  EC50, nM: 10000
- Smiles Input: "CN1CCN(S(=O)(=O)c2ccc(NC(=S)NC(=O)c3ccc(-c4ccccc4)cc3)cc2)CC1"
  Study System: "G-protein coupled receptor 55 (Homo sapiens, UniProt Q9Y2T6)"
  Relational Operator: "="
  EC50, nM: 218
- Smiles Input: "O=C(NC(=S)Nc1ccc(S(=O)(=O)NCCc2ccccc2)cc1)c1ccc(-c2ccccc2)cc1"
  Study System: "G-protein coupled receptor 55 (Homo sapiens, UniProt Q9Y2T6)"
  Relational Operator: "="
  EC50, nM: 39.2

Just for reference, ChEMBL document CHEMBL3745614 is where these values come from.
